growth values by entry
# System: MDA-MB-231 breast
# METHOD_DESCRIPTION: NCI-60 one-dose screen, 48 h (100 = growth as untreated, 0 = no growth, -100 = all killed)
# EXPERIMENTAL_PARAMETERS: 10 µM unless noted
The panel holds about 83,000 compounds, 20% with a hit somewhere; the sample as a whole holds those more often. Activity calls are given as the source filed them. Rule for the calls: active = growth percent below 10; inactive = the rest.
ASSAY_ENDPOINT: growth

>>> print(df.to_string())
                                   compound       measurement
0  CCCCCCCCOC(=O)C(C)OC(=O)OCCOCCOC(=O)OC(C)C(=O)OCCCCCCCC (stereo not given)   107% (inactive)
1  COc1ccc(-n2nc(C(=O)Nc3ccc(F)cc3)nc2-c2cc(OC)c(OC)c(OC)c2)cc1  93.9% (inactive)
2  C=C(COC(C)=O)[C@H]1CC/C(C)=C/CC/C(C)=C/CC[C@@]2(C)O[C@H]2C1   107% (inactive)
3         CC(=O)Oc1c(Cl)c(Cl)c(Cl)c(Cl)c1Cl  86.3% (inactive)
4  Cn1cnc([N+](=O)[O-])c1S(=O)(=O)Oc1ccccc1  99.4% (inactive)
5            COc1cc([N+](=O)[O-])cc(OC)c1OC   112% (inactive)
6  O=C1C(Cl)=C(Nc2cccc3ccccc23)C(=O)c2ccccc21  57.5% (inactive)
7  O=C(C(=O)N1CCCC1)c1cn(CCCn2cc(C(=O)C(=O)N3CCCC3)c3cc(Br)ccc32)c2ccc(Br)cc12  82.1% (inactive)
8  O=C(O)c1ccccc1Oc1cc(-c2ccco2)nc(OCCN2CCOCC2)n1  98.8% (inactive)
9                COc1cc2ccc(C(C)=O)cc2cc1OC   109% (inactive)
